Every entry's value here was drawn from patent US4791139A.

# System: Musca domestica (houseflies - adults)
# test.method.notes: Knockdown test, houseflies - adults (MD/KD), Cotton wool/sugar
# Assay type: in vivo
# test.parameters: 500 ppm, 4 hours, read-out: MD/KD grading of knockdown
measured.metric: pest or weed control at 500 ppm

For orientation, consider the following solved cases.
CCOc1ccc(C(CCCc2cccc(Oc3ccccc3)c2)C(F)F)cc1 (racemic) | < 50%
CCOc1c(F)cc(C(=CC=Cc2ccc(F)c(Oc3ccccc3)c2)C(F)(F)F)cc1F | < 50%
FC(F)C(F)(F)Oc1ccc(C(CCCc2cccc(Oc3ccccc3)c2)C(F)(F)F)cc1 (racemic) | 80 to 100%
CC1(C)Oc2ccc(C(CCCc3cccc(Oc4ccccc4)c3)C(F)(F)F)cc2O1 (centres unmarked) | 80 to 100%
CCOc1ccc(C(CCCc2cccc(Oc3ccccc3)c2)C(F)(F)F)cc1 (racemic) | 80 to 100%
FC(F)(F)C(=CCCc1cccc(Oc2ccccc2)c1)c1ccc2c(c1)OCO2 | 80 to 100%
CCOc1ccc(C(CCCc2cccc(Oc3ccccc3)c2)C(F)(F)Cl)cc1 (racemic) | < 50%
CCOc1c(F)cc(C(CCCc2cccc(Oc3ccccc3)c2)C(F)(F)F)cc1F (racemic) | 80 to 100%

For the molecule "CCOc1ccc(/C(=C\C=Cc2ccc(F)c(Oc3ccccc3)c2)C(F)(F)F)cc1" , what pest or weed control at 500 ppm is on record? 80 to 100%

For the molecule "Fc1ccc(C=CC=C(c2ccc(OC(F)(F)F)cc2)C(F)(F)F)cc1Cc1ccccc1" , what pest or weed control at 500 ppm is on record? < 50%

For the molecule "CCOc1ccc(C(=CC=Cc2cccc(Oc3ccccc3)c2)C(F)F)cc1" , what pest or weed control at 500 ppm is on record? < 50%

====

# Test system: Nilaparvata lugens (brown plant hopper - nymphs)
# test.method.notes: Contact test, brown plant hopper - nymphs (NL), Rice plant
# Format: in vivo
# test.parameters: 72 h, 250 ppm, 3 days, read-out: NL grading of mortality
measured.metric: mortality at 250 ppm

For orientation, consider the following solved cases.
Fc1ccc(C(=CCCc2cccc(Oc3ccccc3)c2)C(F)(F)F)cc1 | < 50%
CCOc1ccc(/C(=C\C=C/c2ccc(F)c(Oc3ccccc3)c2)C(F)(F)F)cc1 | < 50%
CCOc1ccc(C(CCCc2cccc(Oc3ccccc3)c2)C(F)(F)C(F)(F)F)cc1 (racemic) | < 50%

For the compound CCOc1ccc(C(CC=Cc2cccc(Oc3ccccc3)c2)C(F)(F)F)cc1 (stereo not shown) , what mortality at 250 ppm is on record? 80 to 100%

====

# Tested on: Blattella germanica (cockroach nymphs)
# test.method.notes: Residual test, cockroach nymphs (BG), Plastic pot
# Type: in vivo
# test.parameters: 72 h, 500 ppm, 3 days, read-out: BG grading of mortality
Measured mortality at 500 ppm accompanies every entry in the list below.

Fc1ccc(C=CC=C(c2ccc(OC(F)(F)F)cc2)C(F)(F)F)cc1Cc1ccccc1 [Compound 105] | 80 to 100%
Fc1ccc(CCC=C(c2ccc(OC(F)(F)F)cc2)C(F)F)cc1Oc1ccccc1 [Compound 26] | 80 to 100%
CCOc1ccc(C(=CC=Cc2cccc(Oc3ccccc3)c2)C(F)F)cc1 [Compound 65] | < 50%

Look up mortality at 500 ppm with Blattella germanica (cockroach nymphs) for this compound: CCOc1ccc(C(CCCc2cccc(Oc3ccccc3)c2)C(F)F)cc1 (racemic) [Compound 66] 80 to 100%

====

# Test system: Blattella germanica (cockroach nymphs)
# test.method.notes: Residual test, cockroach nymphs (BG), Plastic pot
# Format: in vivo
# test.parameters: 72 h, 250 ppm, 3 days, read-out: BG grading of mortality
measured.metric: mortality at 250 ppm

CC(C)(C)c1ccc(C(=CCCc2cccc(Oc3ccccc3)c2)C(F)(F)F)cc1 | 80 to 100%

For the compound CCOc1ccc(C(CC=Cc2ccc(F)c(Oc3ccccc3)c2)C(F)(F)F)cc1 (centres unmarked) , what mortality at 250 ppm is on record? 80 to 100%

For the compound "CCOc1ccc(/C(=C\C=C/c2ccc(F)c(Oc3ccccc3)c2)C(F)(F)F)cc1" , what mortality at 250 ppm is on record? 50 to 79%

For the compound "Fc1ccc(C(=CCCc2cccc(Oc3ccccc3)c2)C(F)(F)F)cc1" , what mortality at 250 ppm is on record? 50 to 79%

For the compound "CCOc1ccc(C(=CCCc2cccc(Oc3ccccc3)c2)C(F)(F)C(F)(F)F)cc1" , what mortality at 250 ppm is on record? 50 to 79%

For the compound CCOc1ccc(C(CCCc2cccc(Oc3ccccc3)c2)C(F)(F)C(F)(F)F)cc1 (racemic) , what mortality at 250 ppm is on record? < 50%

For the compound "FC(F)(F)Oc1ccc(C(=CCCc2cccc(Oc3ccccc3)c2)C(F)(F)F)cc1" , what mortality at 250 ppm is on record? 80 to 100%

For the compound "FC(F)(F)C(=CCCc1cccc(Oc2ccccc2)c1)c1ccc2c(c1)CCC2" , what mortality at 250 ppm is on record? 50 to 79%

For the compound FC(F)(F)c1ccc(C(CCCc2cccc(Oc3ccccc3)c2)C(F)(F)F)cc1 (racemic) , what mortality at 250 ppm is on record? 80 to 100%

====

# Tested on: Blattella germanica (cockroach nymphs)
# test.method.notes: Residual test, cockroach nymphs (BG), Plastic pot
# Type: in vivo
# test.parameters: 72 h, 500 ppm, 3 days, read-out: BG grading of mortality
measured.metric: mortality at 500 ppm

For orientation, consider the following solved cases.
COc1ccc(C(=CCCc2cccc(Oc3ccccc3)c2)C(F)(F)F)cc1 | < 50%
CCOc1c(F)cc(C(=CCCc2cccc(Oc3ccccc3)c2)C(F)(F)F)cc1F | 80 to 100%
CCOc1ccc(C(CCCc2ccc(F)c(Cc3ccccc3)c2)C(F)(F)F)cc1 (racemic) | 80 to 100%

For the next question, use this compound.
For the compound "Fc1ccc(C=CC=C(c2ccc(OC(F)(F)F)cc2)C(F)F)cc1Oc1ccccc1" , what mortality at 500 ppm is on record? < 50%

====

# Test system: Musca domestica (houseflies - adults)
# test.method.notes: Knockdown test, houseflies - adults (MD/KD), Cotton wool/sugar
# Assay type: in vivo
# test.parameters: 500 ppm, 4 hours, read-out: MD/KD grading of knockdown
Measured pest or weed control at 500 ppm accompanies every entry in the list below.

Fc1ccc(C=CC=C(c2ccc(OC(F)(F)F)cc2)C(F)F)cc1Oc1ccccc1 | < 50%

For the compound "Fc1cc(Br)c(C(=CC=Cc2cccc(Oc3ccccc3)c2)C(F)(F)F)c(F)c1OC(F)(F)F" , what pest or weed control at 500 ppm is on record? < 50%

For the compound FC(F)(F)C(CCCc1cccc(Oc2ccccc2)c1)c1ccc(Cl)cc1 (racemic) , what pest or weed control at 500 ppm is on record? 50 to 79%

For the compound CC1Oc2ccc(C(CCCc3cccc(Oc4ccccc4)c3)C(F)(F)F)cc2O1 (stereo not shown) , what pest or weed control at 500 ppm is on record? 80 to 100%

For the compound CCOc1ccc(C(CCCc2cccc(Oc3ccccc3)c2)C(F)(F)F)cc1F (racemic) , what pest or weed control at 500 ppm is on record? 80 to 100%

For the compound "FC(F)(F)Oc1ccc(C(=CC=Cc2cccc(Oc3ccccc3)c2)C(F)(F)Cl)cc1" , what pest or weed control at 500 ppm is on record? < 50%

For the compound CCOc1ccc(C(CCC(C#N)c2cccc(Oc3ccccc3)c2)C(F)(F)F)cc1 (racemic) , what pest or weed control at 500 ppm is on record? 80 to 100%

For the compound Fc1ccc(CCCC(c2ccc(OC(F)(F)F)cc2)C(F)(F)F)cc1Cc1ccccc1 (stereo not shown) , what pest or weed control at 500 ppm is on record? 80 to 100%

====

# Test system: Diabrotica balteata (rootworm larvae)
# test.method.notes: Residual test, rootworm larvae (DB), Filter paper/maize seed
# Type: in vivo
# test.parameters: 72 h, 500 ppm, 3 days, read-out: DB grading of mortality
Measured mortality at 500 ppm accompanies every entry in the list below.

For orientation, consider the following solved cases.
CCOc1c(F)cc(C(=CCCc2cccc(Oc3ccccc3)c2)C(F)(F)F)cc1F [Compound 51] | 80 to 100%
CCOc1ccc(C(CCC(C)c2cccc(Oc3ccccc3)c2)C(F)(F)F)cc1 (racemic) [Compound 55] | 50 to 79%
FC(F)(F)C(=CCCc1cccc(Oc2ccccc2)c1)c1ccc2c(c1)OCO2 [Compound 41] | 80 to 100%
CC1(C)Oc2ccc(C(CCCc3cccc(Oc4ccccc4)c3)C(F)(F)F)cc2O1 (centres unmarked) [Compound 58] | 80 to 100%

For the compound CCOc1ccc(C(=CCCc2cccc(Oc3ccccc3)c2)C(F)(F)F)cc1 [Compound 1] , what mortality at 500 ppm is on record? 80 to 100%

For the compound CCOc1c(F)cc(C(=CC=Cc2ccc(F)c(Oc3ccccc3)c2)C(F)(F)F)cc1F [Compound 67] , what mortality at 500 ppm is on record? 80 to 100%

For the compound Fc1ccc(CCCC(c2ccc(OC(F)(F)F)cc2)C(F)(F)F)cc1Cc1ccccc1 (centres unmarked) [Compound 108] , what mortality at 500 ppm is on record? < 50%

For the compound CCOc1ccc(C(CC=Cc2cccc(Oc3ccccc3)n2)C(F)(F)F)cc1 (centres unmarked) [Compound 99] , what mortality at 500 ppm is on record? < 50%
